# test.target: Cytochrome P450 3A4 (Homo sapiens)
# protocol.details: Cytochrome panel assay with activity outcomes
# protocol.conditions: recombinant CYP, pro-luciferin dealkylation, luminescence, p450-cyp3a4; series mostly up to 57.1 µM
Among all 16,000 compounds or so, about 5,100 (32%) were called active. Another 25% or so got no clear call; they are omitted. Calls come from the whole dose curve; as a rule, active = well fitted curve in the direction sought with a large enough effect; inconclusive = small, poorly fitted or top-dose-only effect, or effect the other way; inactive = no such curve, though single readings can be large or run the other way. This is one part of the list.
Write down the outcome that applies. Available outcomes: YES for active, NO for inactive

Q. Could you kindly confirm the outcome this assay logged for "CC(C)(C)c1onc(OCP(=O)(O)O)c1C[C@@H](N)C(=O)O" ?
A. NO

Q. Identify the outcome logged in this assay for the molecule shown: "O=C1NC(=O)C(c2ccccc2)(c2ccccc2)N1"
A. NO

Q. Name the outcome recorded for "CCN(C(=O)COc1cc(=O)n(C)c2ccccc12)c1cccc(Cl)c1" in the assay.
A. YES

Q. For this molecule, state the assay outcome: "CC(=O)N(C[C@@H](C)C(=O)O)c1c(I)cc(I)c(N)c1I"
A. NO

Q. Please let me know the test result on file for CCc1ccccc1NC(=O)C1C(c2ccccc2)C1(Cl)Cl (stereo unspecified) .
A. YES

Q. GET /call?item= "COC(=O)C/C=C\[C@@H](C)[C@@H](/C=N\OC[C@@H]1O[C@H](c2ccccc2)C=C[C@@H]1Oc1ccc(OC)cc1)OC" returns the recorded outcome of this test.
A. YES
